The measured values listed here are drawn from paper PMC11825259.

# test_target: urease (Canavalia ensiformis, UniProt P07374)
# Sequence (P07374 whole entry, looked up): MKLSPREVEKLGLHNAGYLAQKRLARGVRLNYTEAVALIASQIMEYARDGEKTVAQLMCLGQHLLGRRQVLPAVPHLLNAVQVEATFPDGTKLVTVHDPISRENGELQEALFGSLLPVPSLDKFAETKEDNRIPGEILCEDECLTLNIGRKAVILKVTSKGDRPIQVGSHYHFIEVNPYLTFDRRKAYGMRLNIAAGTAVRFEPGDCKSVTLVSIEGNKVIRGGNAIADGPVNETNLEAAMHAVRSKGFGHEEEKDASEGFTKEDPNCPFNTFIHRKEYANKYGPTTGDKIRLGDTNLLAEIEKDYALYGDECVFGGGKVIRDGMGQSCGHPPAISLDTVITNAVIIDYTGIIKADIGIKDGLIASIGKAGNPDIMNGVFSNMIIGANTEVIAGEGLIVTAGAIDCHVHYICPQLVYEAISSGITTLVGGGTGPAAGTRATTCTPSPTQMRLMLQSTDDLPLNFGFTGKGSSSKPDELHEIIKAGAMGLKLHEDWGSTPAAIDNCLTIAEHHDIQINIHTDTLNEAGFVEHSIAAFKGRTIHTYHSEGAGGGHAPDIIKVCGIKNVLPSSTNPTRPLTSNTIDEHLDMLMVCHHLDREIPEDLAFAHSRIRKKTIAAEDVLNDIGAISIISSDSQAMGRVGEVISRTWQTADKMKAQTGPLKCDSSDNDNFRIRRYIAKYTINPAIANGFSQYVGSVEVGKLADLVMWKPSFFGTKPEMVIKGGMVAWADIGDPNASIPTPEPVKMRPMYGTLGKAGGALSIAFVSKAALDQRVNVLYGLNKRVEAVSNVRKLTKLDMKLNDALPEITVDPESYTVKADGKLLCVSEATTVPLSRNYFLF
pKi: −log10 of the molar value.
assay_readout: pKi

{"molecule": "Cc1cc(OCC(=O)N/N=C/c2ccc(OCc3cn(Cc4ccccc4)nn3)cc2)c2c(C)cc(=O)oc2c1 [13a]", "numeric_readout": 5.70}
